- tested-target: Muscarinic acetylcholine receptor M3 (Homo sapiens, UniProt P20309)
- Sequence (P20309 whole entry): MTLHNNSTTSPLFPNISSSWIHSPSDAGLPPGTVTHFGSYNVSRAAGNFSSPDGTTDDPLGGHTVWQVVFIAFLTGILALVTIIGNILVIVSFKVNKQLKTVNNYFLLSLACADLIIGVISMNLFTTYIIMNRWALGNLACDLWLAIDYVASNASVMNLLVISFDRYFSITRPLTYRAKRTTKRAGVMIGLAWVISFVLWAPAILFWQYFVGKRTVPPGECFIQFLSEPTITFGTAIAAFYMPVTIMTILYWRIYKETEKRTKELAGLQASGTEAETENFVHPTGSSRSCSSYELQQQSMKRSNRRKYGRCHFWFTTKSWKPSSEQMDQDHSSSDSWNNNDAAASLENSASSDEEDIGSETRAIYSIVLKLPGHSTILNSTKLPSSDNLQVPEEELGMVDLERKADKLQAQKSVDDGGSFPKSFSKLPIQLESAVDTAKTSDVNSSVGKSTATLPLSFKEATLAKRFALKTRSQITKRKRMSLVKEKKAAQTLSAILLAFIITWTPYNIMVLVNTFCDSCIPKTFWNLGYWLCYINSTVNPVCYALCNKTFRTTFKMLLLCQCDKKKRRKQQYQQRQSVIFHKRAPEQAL
This section presents compounds with their documented Ki values.
Express your answer in nM, writing the number without its unit.

For orientation, consider the following solved cases.
compound	tested-target	unit-abbreviation	Ki
COc1ccc([C@H](Cc2c(Cl)c[n+]([O-])cc2Cl)OC(=O)c2ccc(CNC(C)(C(=O)O[C@H]3CN4CCC3CC4)c3ccccc3)s2)cc1OC (stereo in doubt; 1f)	Muscarinic acetylcholine receptor M3 (Homo sapiens, UniProt P20309)	nM	0.2
CCOc1cc([C@H](Cc2c(Cl)cncc2Cl)OC(=O)c2ccc(CN[C@@](CO)(C(=O)O[C@H]3CN4CCC3CC4)c3ccccc3)s2)ccc1OC	Muscarinic acetylcholine receptor M3 (Homo sapiens, UniProt P20309)	nM	3.16
CCOc1cc([C@H](Cc2c(Cl)c[n+]([O-])cc2Cl)OC(=O)c2ccc(CN[C@@](CO)(C(=O)O[C@H]3CN4CCC3CC4)c3ccccc3)s2)ccc1OC	Muscarinic acetylcholine receptor M3 (Homo sapiens, UniProt P20309)	nM	0.631

Consider the additional compound presented here.
Data request, read-out Ki, for COc1ccc([C@H](Cc2c(Cl)c[n+]([O-])cc2Cl)OC(=O)c2ccc(CNC(CO)(C(=O)O[C@H]3CN4CCC3CC4)c3ccccc3)s2)cc1OCC1CC1 (stereo in doubt; 11s)
0.251

meta.source: ChEMBL document CHEMBL5360646
